# target: Potassium voltage-gated channel subfamily KQT member 2 (Rattus norvegicus) (UniProt O88943)
# Sequence (O88943 whole entry, looked up): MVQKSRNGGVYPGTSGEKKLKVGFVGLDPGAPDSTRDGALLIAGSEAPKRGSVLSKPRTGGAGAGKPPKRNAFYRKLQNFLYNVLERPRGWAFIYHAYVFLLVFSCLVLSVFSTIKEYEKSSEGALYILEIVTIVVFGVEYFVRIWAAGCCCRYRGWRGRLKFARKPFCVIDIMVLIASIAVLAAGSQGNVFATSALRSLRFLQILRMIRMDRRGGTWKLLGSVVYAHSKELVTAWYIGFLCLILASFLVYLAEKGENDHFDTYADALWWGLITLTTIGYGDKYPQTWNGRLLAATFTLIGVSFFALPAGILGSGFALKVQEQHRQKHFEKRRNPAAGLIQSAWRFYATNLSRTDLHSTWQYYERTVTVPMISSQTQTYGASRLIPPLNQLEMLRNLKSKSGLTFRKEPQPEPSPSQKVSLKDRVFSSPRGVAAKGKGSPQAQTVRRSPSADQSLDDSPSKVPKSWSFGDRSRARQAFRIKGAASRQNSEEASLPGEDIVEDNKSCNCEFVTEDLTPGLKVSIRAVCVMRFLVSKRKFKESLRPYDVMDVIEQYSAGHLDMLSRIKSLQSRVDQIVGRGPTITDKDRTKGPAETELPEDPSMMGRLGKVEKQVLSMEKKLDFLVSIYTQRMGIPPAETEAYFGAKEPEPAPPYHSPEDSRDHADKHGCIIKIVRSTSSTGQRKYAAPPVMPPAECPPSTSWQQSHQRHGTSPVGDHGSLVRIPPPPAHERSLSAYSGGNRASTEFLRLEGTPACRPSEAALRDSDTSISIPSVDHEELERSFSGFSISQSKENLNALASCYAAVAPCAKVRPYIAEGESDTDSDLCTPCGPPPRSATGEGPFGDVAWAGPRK
# procedure.text: rat KCNQ2 channel potentiation, selectivity assay for KCNQ1 potentiator project, KCNQ2-CHO-K1 cells (AID 493009);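 further: assay conditions were tuned for KCNQ1 rather than KCNQ2 modulators; signal is max minus min fluorescence divided by baseline after thallium stimulus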
# reported.conditions: FluxOR thallium flux fluorescence, at 10 µM, scaled: buffer 0, activator control 100
Calls of active or inactive are those of the source.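 How the source made its calls: active means mean duplicate potentiation above the buffer control mean plus 5 SD of buffer wells; inactive means the rest.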
API: response.call in active, inactive

Recorded test call requested for O=C(NC(=S)N1CCCC1)c1ccc(Cl)cc1
inactive

Recorded test call requested for CCOC(=O)c1c(NC(=O)C(C)N2CCN(C(=O)c3ccco3)CC2)sc2c1CCCC2 (stereo unspecified)
active

Recorded test call requested for Cc1ccc(C)c(NS(=O)(=O)c2cc(C(=O)NCc3ccccn3)ccc2Cl)c1
inactive

Recorded test call requested for CC(=O)c1cccc(NC(=S)NC(=O)c2ccc(Cl)cc2)c1
inactive

Recorded test call requested for COc1cc(CNCCN2CCOCC2)ccc1OCc1ccc(Cl)cc1Cl
inactive

Recorded test call requested for CCCCCn1c(=O)c(F)cn(Cc2ccc(OC)c([N+](=O)[O-])c2)c1=O
inactive

Recorded test call requested for O=C(NC(=S)Nc1ccccc1N1CCCC1)c1ccco1
active

Recorded test call requested for O=P(CCCCCCCCCP(=O)(c1ccccc1)c1ccccc1)(c1ccccc1)c1ccccc1
active

Recorded test call requested for Cc1nc2sc(C(c3ccccc3)N3CCN(C(=O)c4ccco4)CC3)c(O)n2n1 (stereo unspecified)
inactive

Recorded test call requested for CC(Oc1ccc(Cl)cc1Cl)C(=O)NC(=S)N1CCc2ccccc21 (stereo unspecified)
active

Recorded test call requested for S=c1[nH]nc(-c2ccc(Br)o2)n1Cc1ccccc1
inactive

* * *

# target: Potassium voltage-gated channel subfamily KQT member 1 (Homo sapiens) (UniProt P51787)
# Sequence (P51787 whole entry, looked up): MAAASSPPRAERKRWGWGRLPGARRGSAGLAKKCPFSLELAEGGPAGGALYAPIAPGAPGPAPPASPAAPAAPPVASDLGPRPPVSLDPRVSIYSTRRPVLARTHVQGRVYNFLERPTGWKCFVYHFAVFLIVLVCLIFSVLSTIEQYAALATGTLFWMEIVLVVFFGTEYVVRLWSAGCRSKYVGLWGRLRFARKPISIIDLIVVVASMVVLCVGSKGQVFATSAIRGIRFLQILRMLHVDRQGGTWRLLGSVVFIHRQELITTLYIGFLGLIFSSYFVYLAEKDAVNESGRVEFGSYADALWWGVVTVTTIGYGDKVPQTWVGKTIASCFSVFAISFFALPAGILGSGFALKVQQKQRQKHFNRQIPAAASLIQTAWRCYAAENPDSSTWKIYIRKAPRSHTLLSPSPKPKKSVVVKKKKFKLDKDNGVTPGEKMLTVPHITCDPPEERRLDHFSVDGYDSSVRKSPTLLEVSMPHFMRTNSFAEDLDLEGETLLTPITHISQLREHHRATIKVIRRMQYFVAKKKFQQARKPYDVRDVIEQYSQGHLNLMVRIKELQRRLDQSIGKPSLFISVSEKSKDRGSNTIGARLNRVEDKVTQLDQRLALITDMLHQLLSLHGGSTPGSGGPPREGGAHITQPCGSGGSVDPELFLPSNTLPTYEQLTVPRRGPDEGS
# procedure.text: KCNQ1 channel current potentiators, confirmation, orthogonal assay for KCNQ1 potentiator project, IonWorks patch clamp, KCNQ1-CHO cells (AID 493184)
# reported.conditions: automated patch clamp current, at 10 µM
Active and inactive are the calls of the source.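 Rule for the calls: active = current rise at least 3 SD above the untreated control mean in each of two repeat wells; inactive = the rest.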
API: response.call in active, inactive

Recorded test call requested for CCCn1cc(NC(=O)c2cc(-c3ccccc3)on2)cn1
inactive

Recorded test call requested for O=C1c2cccc3cccc(c23)C(=O)N1c1cccc(O)c1
inactive

Recorded test call requested for CC1(N2CCCCC2)CC2(O)C(=[N+]1[O-])CCC/C2=N\O (stereo unspecified)
inactive

Recorded test call requested for Cc1[nH]c(=S)sc1Cc1ccc(F)cc1
inactive

Recorded test call requested for CCCOc1ccc(-c2c(=O)n(O)c3ccccc3[n+]2[O-])cc1
inactive

Recorded test call requested for C=CCN(CC=C)C(=S)NC(=O)c1ccc(C)c(Br)c1
inactive

Recorded test call requested for COc1ccc(-c2nc(CS(=O)CC(=O)NC3CCCC3)c(C)o2)cc1OC (stereo unspecified)
inactive

Recorded test call requested for S=c1[nH]c(-c2ccc(Cl)cc2)cs1
inactive

Recorded test call requested for CCSc1nc(=S)cc(C)[nH]1
inactive

Recorded test call requested for Oc1c(Cl)cc(Cl)cc1C=Nc1ccc2c(c1)OCCO2
inactive

Recorded test call requested for CCOc1ccc2[nH]c(=O)c(CN(CCN3CCCC3)C(=S)Nc3ccccc3OCC)cc2c1
inactive

Recorded test call requested for O=C(NC(=S)Nc1ccc2c(c1)OCCO2)c1ccco1
inactive

Recorded test call requested for CCOC(=O)NC(=S)Nc1ccc(C(C)(C)C)cc1
inactive

Recorded test call requested for CCCN1C(=O)/C(=C/c2ccc(C)s2)NC1=S
inactive

Recorded test call requested for CCCCC(Nc1ncnc2ccccc12)C(=O)O (stereo unspecified)
inactive

Recorded test call requested for Cc1nn(-c2ccccc2)c(Cl)c1/C=C1\SC(=S)NC1=O
inactive

Recorded test call requested for COC(=O)CCCC[C@@H]1SC[C@@H](NC(=O)OC)[C@@H]1NC(=O)OC
inactive

Recorded test call requested for CC(=O)CC1(OC(C)=O)C(=O)N(C)c2ccccc21 (stereo unspecified)
inactive

Recorded test call requested for COc1ccc(/C=C2\SC(=S)N(NS(=O)(=O)c3ccc(C)cc3)C2=O)c(OC)c1
active

Recorded test call requested for Cn1ncc([N+](=O)[O-])c1C(=O)N/N=C/c1ccc(F)cc1
inactive

Recorded test call requested for CCC1(C)Cc2c(sc3nc(SC)[nH]c(=S)c23)CO1 (stereo unspecified)
inactive

Recorded test call requested for O=C(Nc1nnc(-c2ccc3c(c2)CCCC3)o1)c1ccc(Cl)cc1Cl
inactive

Recorded test call requested for Cc1ccnc(NC(=O)CNC(=O)c2ccc3c(c2)OCO3)c1
inactive

Recorded test call requested for COC(=O)C1=C(C(=O)OC)[C@@H]2N(C)c3ccccc3[C@@]23C[C@@H](C(=O)OC)N(C(=O)c2ccc(Br)cc2)C3=N1
inactive

Recorded test call requested for CC(C)Cn1c(=S)[nH]c2cc(Cl)ccc21
inactive

Recorded test call requested for Cn1cc(C(=O)N/N=C/c2ccc([N+](=O)[O-])cc2)c2ccccc21
inactive

Recorded test call requested for CCc1nnc(NC(=O)CCC(=O)N2CCN(C3CCCCC3)CC2)s1
inactive

Recorded test call requested for CCCCOc1ccc(C(=O)Oc2ccc(C)nc2)cc1
inactive

Recorded test call requested for COC(=O)c1ccc(CNC(=O)CSc2nc3sc(C)c(C)c3c(=O)n2C)o1
inactive

Recorded test call requested for CCCc1cc2c(-c3ccccc3)cc(=O)oc2cc1OCc1ccc(C(=O)O)o1
inactive

Recorded test call requested for Cc1ccc(C(C#N)c2ccc3c(C(F)(F)F)cc(C(F)(F)F)nc3n2)cc1 (stereo unspecified)
inactive

Recorded test call requested for CC1(C)Cc2c(sc(/N=C/N3CCCCCC3)c2C#N)C(C)(C)N1
inactive

Recorded test call requested for O=C(NC(=S)N1CCN(Cc2ccc3c(c2)OCO3)CC1)c1cccc(Br)c1
inactive

Recorded test call requested for COc1cc(C2NC(=O)NC(O)(C(F)(F)F)C2C(C)=O)cc(OC)c1OC (stereo unspecified)
inactive

Recorded test call requested for N#C/C(=C\c1ccc(-c2ccccc2Cl)o1)C(=O)Nc1nc2ccccc2s1
inactive

Recorded test call requested for CCCCN(CCCC)c1ccc(C(=O)c2ccccc2C(=O)O)c(O)c1
active

Recorded test call requested for Cc1ccc(S(=O)(=O)Nc2cccc3ncccc23)s1
inactive

Recorded test call requested for Cc1cccc(NC(=S)NC(=O)c2ccc(Br)o2)c1C
inactive

Recorded test call requested for CCn1c(=S)[nH]c2scc(-c3cccs3)c2c1=O
inactive

Recorded test call requested for CCOC(=O)Cn1nc(-c2ccc(F)cc2)cc(Cc2ccccc2)c1=O
inactive

Recorded test call requested for O=C(COc1ncnc2ccc(Br)cc12)Nc1ccc(N2CCOCC2)cc1
inactive

Recorded test call requested for CN(C)CCCC1(O)c2ccccc2C=Cc2ccccc21
inactive

Recorded test call requested for Nc1nc(N)c(N=Nc2ccc(C(=O)O)cc2)c(N)n1
inactive

Recorded test call requested for Cc1cc(S(=O)(=O)N2CCOCC2)ccc1OCC(=O)Nc1ccc(Br)cc1F
inactive

Recorded test call requested for COc1cc(CNCCN2CCOCC2)ccc1OCc1ccc(Cl)cc1Cl
inactive

Recorded test call requested for CCOc1cc(S(=O)(=O)Nc2ccc(Cl)cn2)ccc1Cl
inactive
